Test system: INS-1 cells
procedure-summary: Stimulation test of insulin secretion by INS-1 cells
Assay type: cell-based
measurement-parameters: Rattus norvegicus, INS1, 1 h; 10 μM; insulin secretion by INS-1 cells in response to glucose; read-out: HGP % of ctrl @ 10 μM
Assignment: determine reported insulin secretion, % of control at 10 µM for the given compounds.
Answers are plain numbers, in %.

[[record]]
compound = "CCOC(=O)CSCc1nc2ccc(Cl)cn2c1C#Cc1cccc(OC(F)(F)F)c1 [Derivative 112]"
recorded_metric = "insulin secretion, % of control at 10 µM"
observed_value = 150

[[record]]
compound = "COC(=O)c1cccc(OCc2nc3ccccn3c2C#Cc2ccccc2)c1 [Derivative 87]"
recorded_metric = "insulin secretion, % of control at 10 µM"
observed_value = 182

[[record]]
compound = "CCOC(=O)COCc1nc2ccccn2c1C#Cc1cccc(OC)c1 [Derivative 12]"
recorded_metric = "insulin secretion, % of control at 10 µM"
observed_value = 123

[[record]]
compound = "CCOC(=O)COCc1nc2ccccn2c1C#Cc1ccccc1F [Derivative 25]"
recorded_metric = "insulin secretion, % of control at 10 µM"
observed_value = 134

[[record]]
compound = "O=C(O)CSCc1nc2ccc(Cl)cn2c1C#Cc1ccc(F)cc1 [Derivative 117]"
recorded_metric = "insulin secretion, % of control at 10 µM"
observed_value = 130


# batch size: 2; output insulin secretion, % of control at 10 µM per entry
1. CC(C)(CO)C(OCc1nc2ccccn2c1C#Cc1cccc(C(F)(F)F)c1)C(=O)O (stereo not drawn) [Derivative 129]
2. CN(C)CCNC(=O)COCc1nc2ccccn2c1C#Cc1cccc(C(F)(F)F)c1 [Derivative 55]

1. 109
2. 130

# batch size: 5; output insulin secretion, % of control at 10 µM per entry
1. O=C([O-])c1ccccc1OCc1nc2ccccn2c1C#Cc1ccccc1.[Na+] [Derivative 92]
2. COC(=O)c1ccccc1OCc1nc2ccccn2c1C#Cc1cccc(C#N)c1 [Derivative 79]
3. CCOC(=O)CN(C)Cc1nc2ccc(Cl)cn2c1C#Cc1cccc(C(F)(F)F)c1 [Derivative 102]
4. COC(=O)CN(C)Cc1nc2ccccn2c1C#Cc1cccc(C(F)(F)F)c1 [Derivative 72]
5. CCONC(=O)COCc1nc2ccccn2c1C#Cc1ccc(F)cc1 [Derivative 58]

135
128
176
172
127

* * *

Test system: INS-1 cells
procedure-summary: Stimulation test of insulin secretion by INS-1 cells
Type: cell-based
measurement-parameters: Rattus norvegicus, INS1, 1 h; 50 μM; insulin secretion by INS-1 cells in response to glucose; read-out: HGP % of ctrl @ 50 μM
Define the label as Satisfied when insulin secretion, % of control at 50 µM is strictly less than 200% and as Not satisfied in all remaining cases.

Reference set (8 entries):
[[record]]
compound = "COC(=O)c1ccccc1OCc1nc2ccccn2c1C#Cc1ccccc1 [Derivative 78]"
target = "INS-1 cells"
label_class = "Satisfied"

[[record]]
compound = "O=C(O)CSCc1nc2ccc(Cl)cn2c1C#Cc1ccc(F)cc1 [Derivative 117]"
target = "INS-1 cells"
label_class = "Satisfied"

[[record]]
compound = "CCOC(=O)CSCc1nc2ccc(Cl)cn2c1C#Cc1ccc(F)cc1 [Derivative 110]"
target = "INS-1 cells"
label_class = "Satisfied"

[[record]]
compound = "O=C(COCc1nc2ccccn2c1C#Cc1ccc(F)cc1)NO [Derivative 59]"
target = "INS-1 cells"
label_class = "Not satisfied"

[[record]]
compound = "COC(=O)c1cccc(OCc2nc3ccccn3c2C#Cc2cccc(C(F)(F)F)c2)c1 [Derivative 81]"
target = "INS-1 cells"
label_class = "Satisfied"

[[record]]
compound = "CCONC(=O)COCc1nc2ccccn2c1C#Cc1ccc(F)cc1 [Derivative 58]"
target = "INS-1 cells"
label_class = "Not satisfied"

[[record]]
compound = "COc1cccn2c(C#Cc3cccc(C(F)(F)F)c3)c(CSCCO)nc12 [Derivative 130]"
target = "INS-1 cells"
label_class = "Satisfied"

[[record]]
compound = "COC(=O)c1cccc(OCc2nc3ccccn3c2C#Cc2ccccc2)c1 [Derivative 87]"
target = "INS-1 cells"
label_class = "Satisfied"


hey, is insulin secretion, % of control at 50 µM for CCOC(=O)COCc1nc2ccccn2c1C#Cc1ccccc1F [Derivative 25] lower than 200% or not? Not satisfied

hey, is insulin secretion, % of control at 50 µM for O=C(O)COCc1nc2ccccn2c1C#Cc1ccc(OC(F)(F)F)c(F)c1 [Derivative 39] lower than 200% or not? Satisfied

hey, is insulin secretion, % of control at 50 µM for CCOC(=O)COCc1nc2ccccn2c1C#Cc1ccc(F)cc1 [Derivative 3] lower than 200% or not? Not satisfied

* * *

Assignment: determine reported insulin secretion, % of control at 10 µM for the given compounds.
Test system: INS-1 cells
procedure-summary: Stimulation test of insulin secretion by INS-1 cells
Type: cell-based
measurement-parameters: Rattus norvegicus, INS1, 1 h; 10 μM; insulin secretion by INS-1 cells in response to glucose; read-out: HGP % of ctrl @ 10 μM
Protocol: The different compounds were tested on an INS-1 beta-pancreatic line in order to evaluate their capability of potentializing the insulin secretion in response to glucose. […] Finally, the cells are again washed with Krebs buffer and then incubated for 1 h in the buffer of the secretion test (Krebs, pH 7.4 containing 0.1% of bovine albumin and 3.5 mM of glucose and molecules to be evaluated). […]
Answers are plain numbers, in %.

Study these solved cases before continuing.
[[record]]
compound_structure_string = "COC(=O)c1ccccc1OCc1nc2ccccn2c1C#Cc1ccc(F)cc1"
recorded_metric = "insulin secretion, % of control at 10 µM"
unit_text = "%"
observed_value = 156

[[record]]
compound_structure_string = "CCOC(=O)COCc1nc2ccccn2c1C#Cc1cccc(C#N)c1"
recorded_metric = "insulin secretion, % of control at 10 µM"
unit_text = "%"
observed_value = 100

[[record]]
compound_structure_string = "COC(=O)c1cccc(OCc2nc3ccccn3c2C#Cc2cccc(C(F)(F)F)c2)c1"
recorded_metric = "insulin secretion, % of control at 10 µM"
unit_text = "%"
observed_value = 142

[[record]]
compound_structure_string = "CCOC(=O)CSCc1nc2ccc(Cl)cn2c1C#Cc1cccc(C(F)(F)F)c1"
recorded_metric = "insulin secretion, % of control at 10 µM"
unit_text = "%"
observed_value = 136

[[record]]
compound_structure_string = "CCOC(=O)COCc1nc2ccccn2c1C#Cc1ccccc1C(F)(F)F"
recorded_metric = "insulin secretion, % of control at 10 µM"
unit_text = "%"
observed_value = 138


Note: attention shifts to another entry.
Find the measured insulin secretion, % of control at 10 µM of CCOC(=O)COCc1nc2ccccn2c1C#Cc1ccsc1 and report it. 116

* * *

Test system: INS-1 cells
procedure-summary: Stimulation test of insulin secretion by INS-1 cells
Format: cell-based
measurement-parameters: Rattus norvegicus, INS1, 1 h; 50 μM; insulin secretion by INS-1 cells in response to glucose; read-out: HGP % of ctrl @ 50 μM
recorded-metric: insulin secretion, % of control at 50 µM (%)
Give bare numbers, in %.

[[record]]
compound_structure_string = "COC(=O)c1ccccc1OCc1nc2ccccn2c1C#Cc1ccc(F)cc1"
target = "INS-1 cells"
observed_value = 202

[[record]]
compound_structure_string = "CCOC(=O)COCc1nc2ccccn2c1C#Cc1cccc(OC)c1"
target = "INS-1 cells"
observed_value = 204


# batch size: 7; output insulin secretion, % of control at 50 µM per entry
1. CCOC(=O)COCc1nc2ccccn2c1C#Cc1ccc([N+](=O)[O-])cc1
2. CCOC(=O)COCc1nc2ccccn2c1C#Cc1ccc(C)cc1
3. CCOC(=O)COCc1nc2ccccn2c1C#Cc1ccccc1C(F)(F)F
4. CCOC(=O)[C@@H](N)CSCc1nc2ccccn2c1C#Cc1cccc(C(F)(F)F)c1
5. CCOC(=O)COCc1nc2ccccn2c1C#Cc1ccccc1
6. CCOC(=O)CSCc1nc2ccc(Cl)cn2c1C#Cc1cccc(OC(F)(F)F)c1
7. COC(=O)CN(C)Cc1nc2ccccn2c1C#Cc1cccc(C(F)(F)F)c1

[195, 333, 246, 112, 211, 256, 151]

# batch size: 2; output insulin secretion, % of control at 50 µM per entry
1. O=C(O)c1ccccc1OCc1nc2ccccn2c1C#Cc1ccc(F)cc1
2. CN(C)CCNC(=O)COCc1nc2ccccn2c1C#Cc1cccc(C(F)(F)F)c1

1: 263; 2: 135
